# Study Target: CDK4/D1 (Homo sapiens)
# Sequence (P11802 whole entry): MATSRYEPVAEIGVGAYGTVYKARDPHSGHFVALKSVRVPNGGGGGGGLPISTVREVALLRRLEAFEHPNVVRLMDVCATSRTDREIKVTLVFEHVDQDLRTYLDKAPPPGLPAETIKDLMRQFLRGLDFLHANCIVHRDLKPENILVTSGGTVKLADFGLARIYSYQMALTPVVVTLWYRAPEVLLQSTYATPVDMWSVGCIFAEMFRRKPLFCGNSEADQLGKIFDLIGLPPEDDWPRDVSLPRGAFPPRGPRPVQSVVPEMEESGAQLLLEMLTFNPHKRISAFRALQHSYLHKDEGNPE
# Sequence (P24385 whole entry partner): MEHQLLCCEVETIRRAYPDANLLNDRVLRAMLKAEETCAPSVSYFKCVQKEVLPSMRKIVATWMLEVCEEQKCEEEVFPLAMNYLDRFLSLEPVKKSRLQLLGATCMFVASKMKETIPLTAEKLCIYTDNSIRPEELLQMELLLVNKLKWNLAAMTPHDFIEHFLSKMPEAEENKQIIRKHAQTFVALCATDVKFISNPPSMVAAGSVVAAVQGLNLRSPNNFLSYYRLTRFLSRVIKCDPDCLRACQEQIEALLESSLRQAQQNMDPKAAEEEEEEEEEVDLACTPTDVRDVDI
# Test Summary: ADP Glo Kinase assay CDK4/D1
# Format: biochemical
# Setup Conditions: CDK4D1; compound at 10 μM; read-out: residual activity (%) at 10 μM CDK4D1
Recorded Endpoint: remaining activity at 10 µM (%)

Here is how some molecules turned out for remaining activity at 10 µM.
Molecule: CN[C@H]1CC[C@H](Nc2ncc(C)c(-c3cnc4ccc(-c5ccccc5)cn34)n2)CC1
Unit Label: %
remaining activity at 10 µM: 60
--
Molecule: Cc1ccc(Nc2ccc3ncc(-c4nc(N[C@H]5CC[C@H](N)CC5)ncc4C)n3c2)cn1
Unit Label: %
remaining activity at 10 µM: 24
--
Molecule: Fc1cnc(N[C@H]2CC[C@H](NC3CCOCC3)CC2)nc1-c1cnc2ccccn12
Unit Label: %
remaining activity at 10 µM: 7
--
Molecule: Fc1cnc(NC2CCN(CC3CC3)CC2)nc1-c1cnc2ccc(-c3ccccc3)cn12
Unit Label: %
remaining activity at 10 µM: 41
--
Molecule: N[C@H]1CC[C@H](Nc2ncc(Cl)c(-c3cnc4ccc(Br)cn34)n2)CC1
Unit Label: %
remaining activity at 10 µM: 4

(1) COc1ccc(-c2ccc3ncc(-c4nc(N[C@H]5CC[C@H](O)CC5)ncc4Cl)n3c2)cn1
(2) N[C@H]1CC[C@H](Nc2ncc(Cl)c(-c3cnc4cc(Nc5cncnc5)ccn34)n2)CC1
(3) Cc1cnc(N[C@H]2CC[C@H](N)CC2)nc1-c1cnc2ccc(NCc3ccc(F)cc3)cn12
Incoming: Order by remaining activity at 10 µM, ascending. # respond with the labels, arranged in the requested order
Outgoing: 2, 3, 1

(A) Cc1cnc(N[C@H]2CC[C@H](N)CC2)nc1-c1cnc2ccc(N(C)c3cccnc3)cn12
(B) N[C@H]1CC[C@H](Nc2ncc(F)c(-c3cnc4cc(Cl)ccn34)n2)CC1
Incoming: Which numeric remaining activity at 10 µM is bigger, that of A or that of B ? Mark your selection by writing its label.
Outgoing: A

(I) Cc1cnc(N[C@H]2CC[C@H](N)CC2)nc1-c1cnc2ccc(-c3ccncc3)cn12
(II) Cc1cnc(N[C@H]2CC[C@H](N)CC2)nc1-c1cnc2ccc(Nc3cnccn3)cn12
(III) CN1CCC(Nc2ncc(F)c(-c3cnc4ccc(Nc5cncnc5)cn34)n2)CC1
(IV) COc1ccc(-c2ccc3ncc(-c4nc(N[C@H]5CC[C@H](N)CC5)ncc4C)n3c2)cn1
Incoming: Please put the entries in order of rising remaining activity at 10 µM. // list labels; follow requested order
Outgoing: III, I, II, IV
(III: 3%, I: 7%, II: 31%, IV: 69%)

----------
# Study Target: CDK6/D3 (Homo sapiens)
# Sequence (Q00534 whole entry): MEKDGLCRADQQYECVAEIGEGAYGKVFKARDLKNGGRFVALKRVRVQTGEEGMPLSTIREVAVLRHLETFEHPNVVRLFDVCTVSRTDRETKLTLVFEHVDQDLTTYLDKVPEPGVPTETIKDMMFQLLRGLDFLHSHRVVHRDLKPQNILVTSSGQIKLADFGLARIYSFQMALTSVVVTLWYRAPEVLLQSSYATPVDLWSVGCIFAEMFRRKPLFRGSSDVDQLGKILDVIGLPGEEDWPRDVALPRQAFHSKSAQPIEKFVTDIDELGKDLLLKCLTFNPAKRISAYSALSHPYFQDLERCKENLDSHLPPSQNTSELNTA
# Sequence (P30281 whole entry partner): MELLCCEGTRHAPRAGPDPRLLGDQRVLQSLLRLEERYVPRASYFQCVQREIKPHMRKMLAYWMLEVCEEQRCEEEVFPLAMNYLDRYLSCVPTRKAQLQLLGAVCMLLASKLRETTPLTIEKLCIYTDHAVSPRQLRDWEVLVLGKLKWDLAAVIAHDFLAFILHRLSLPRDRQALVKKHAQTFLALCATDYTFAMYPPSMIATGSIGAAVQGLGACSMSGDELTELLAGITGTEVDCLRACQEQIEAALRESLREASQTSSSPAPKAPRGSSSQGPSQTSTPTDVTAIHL
# Test Summary: ADP Glo Kinase assay CDK6/D3
# Format: biochemical
# Setup Conditions: CDK6D3; compound at 10 μM; read-out: residual activity (%) at 10 μM CDK6D3
Recorded Endpoint: remaining activity at 10 µM (%)

Compound: N[C@H]1CC[C@H](Nc2ncc(F)c(-c3cnc4cc(-c5ccccc5)ccn34)n2)CC1 [Compound 44]
Unit Label: %
remaining activity at 10 µM: 1

(a) COc1cnc(N[C@H]2CC[C@H](N)CC2)nc1-c1cnc2ccccn12 [Compound 11]
(b) N[C@H]1CC[C@H](Nc2ncc(F)c(-c3cnc4ccc(-c5ccc(CN6CCOCC6)cc5)cn34)n2)CC1 [Compound 47]
(c) N[C@H]1CC[C@H](Nc2ncc(Cl)c(-c3cnc4ccc(NC(=O)c5ccccc5)cn34)n2)CC1 [Compound 87]
(d) Cc1cnc(N[C@]23C[C@@]4(C)C[C@](C)(C[C@](O)(C4)C2)C3)nc1-c1cnc2ccc(Nc3cncnc3)cn12 [Compound 102]
(e) Cc1cnc(N[C@H]2CC[C@@H](N)CC2)nc1-c1cnc2ccc(Nc3cccnc3)cn12 [Compound 92]
Incoming: List by increasing remaining activity at 10 µM. Lab note: final answer is the ordered label list.
Outgoing: b, a, c, e, d
(b: 16%, a: 27%, c: 39%, e: 58%, d: 100%)
